Origin of values: patent US20170355757A1

Exercise: for every item that follows, state its recorded kon.
assay.target: T1, monkey C5-mmh (monkey, UniProt P01031 19-1676 (human entry), limits assumed)
T1 construct: Recombinant monkey C5 with a C-terminal myc-myc-hexahistidine tag
T1 chain: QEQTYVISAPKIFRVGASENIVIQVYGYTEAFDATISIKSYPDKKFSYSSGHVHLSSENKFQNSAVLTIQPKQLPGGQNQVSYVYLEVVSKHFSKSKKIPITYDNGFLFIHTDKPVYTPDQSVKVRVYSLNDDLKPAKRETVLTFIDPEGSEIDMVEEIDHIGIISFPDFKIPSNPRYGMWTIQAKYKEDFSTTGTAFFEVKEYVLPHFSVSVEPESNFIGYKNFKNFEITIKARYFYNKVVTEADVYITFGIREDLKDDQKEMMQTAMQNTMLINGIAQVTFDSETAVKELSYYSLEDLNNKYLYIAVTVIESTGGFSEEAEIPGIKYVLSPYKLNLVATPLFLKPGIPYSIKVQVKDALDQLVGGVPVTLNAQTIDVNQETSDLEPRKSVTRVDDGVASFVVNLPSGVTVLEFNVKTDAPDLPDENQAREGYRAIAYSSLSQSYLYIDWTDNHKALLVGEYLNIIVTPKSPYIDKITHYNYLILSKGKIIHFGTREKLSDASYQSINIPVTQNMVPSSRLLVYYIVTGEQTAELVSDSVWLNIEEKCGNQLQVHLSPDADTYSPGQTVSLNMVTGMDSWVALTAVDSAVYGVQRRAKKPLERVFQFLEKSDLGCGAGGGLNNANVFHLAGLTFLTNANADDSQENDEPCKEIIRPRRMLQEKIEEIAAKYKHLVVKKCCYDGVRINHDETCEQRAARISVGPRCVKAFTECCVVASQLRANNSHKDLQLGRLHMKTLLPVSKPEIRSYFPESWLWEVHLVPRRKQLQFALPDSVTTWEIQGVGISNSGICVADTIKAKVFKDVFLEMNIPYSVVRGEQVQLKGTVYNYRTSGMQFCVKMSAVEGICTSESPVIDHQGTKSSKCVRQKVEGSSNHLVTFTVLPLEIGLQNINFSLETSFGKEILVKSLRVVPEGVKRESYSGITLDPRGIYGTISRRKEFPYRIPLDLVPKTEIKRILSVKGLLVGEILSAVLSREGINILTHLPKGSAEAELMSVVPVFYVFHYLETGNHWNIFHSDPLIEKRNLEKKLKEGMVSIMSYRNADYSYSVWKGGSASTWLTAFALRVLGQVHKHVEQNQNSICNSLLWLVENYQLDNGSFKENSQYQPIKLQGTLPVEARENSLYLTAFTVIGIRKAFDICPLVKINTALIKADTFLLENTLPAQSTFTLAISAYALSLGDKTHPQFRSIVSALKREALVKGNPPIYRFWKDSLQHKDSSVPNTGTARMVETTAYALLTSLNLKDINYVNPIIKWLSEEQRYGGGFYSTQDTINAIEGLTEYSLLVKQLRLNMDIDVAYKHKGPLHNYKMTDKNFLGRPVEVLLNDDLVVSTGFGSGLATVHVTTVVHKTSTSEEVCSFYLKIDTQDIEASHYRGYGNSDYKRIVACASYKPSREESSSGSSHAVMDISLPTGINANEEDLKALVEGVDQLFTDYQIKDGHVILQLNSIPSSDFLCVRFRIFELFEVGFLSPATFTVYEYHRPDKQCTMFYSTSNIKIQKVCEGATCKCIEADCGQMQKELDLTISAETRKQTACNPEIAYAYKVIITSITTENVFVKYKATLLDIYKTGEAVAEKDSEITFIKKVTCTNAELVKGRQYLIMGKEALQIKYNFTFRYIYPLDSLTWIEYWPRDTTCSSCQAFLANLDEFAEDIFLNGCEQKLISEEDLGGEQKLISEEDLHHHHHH
method: SPR, mAb captured via anti-hFc, 37C
The reply should read as a number followed by its unit.

Request: kon for H4H12175P (antibody, human IgG4, V domains shown, Human IgG4 Fc with S108P hinge mutation (H4H)) VH: EVQLVESGGGVVQPGGSLRLSCAASGFTFNDYAMHWVRQAPGKGLEWVSLISGDGGNTYYADSVKGRLTISRDNSKNSLYLQMNSLRTEDTALYYCAKDKGWNFGYFDLWGRGTLVTVSS VL: DIQMTQSPSSLSTSVGDRVTITCRASQNIDTYLNWYQQKPGKAPKLLIYDASSLQSGVPSRFSGSGSGTDFTLTITSLQPEDFATYYCQQNDNILHPLTFGGGTKVEIK ?
Response: 177000 M⁻¹ s⁻¹

Request: kon for H4H12170P (antibody, human IgG4, V domains shown, Human IgG4 Fc with S108P hinge mutation (H4H)) VH: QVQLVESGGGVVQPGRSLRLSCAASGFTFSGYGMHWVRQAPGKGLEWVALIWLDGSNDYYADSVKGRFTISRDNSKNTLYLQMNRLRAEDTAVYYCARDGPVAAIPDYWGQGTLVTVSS VL: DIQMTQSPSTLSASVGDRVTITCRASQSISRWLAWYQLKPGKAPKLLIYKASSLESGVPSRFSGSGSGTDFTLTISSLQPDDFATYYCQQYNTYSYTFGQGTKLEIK ?
Response: 521000 M⁻¹ s⁻¹

Request: kon for H4H12166P6 (antibody, human IgG4, V domains shown, Histidine-mutated CDR variant of H4H12166P; human IgG4 Fc with S108P) VH: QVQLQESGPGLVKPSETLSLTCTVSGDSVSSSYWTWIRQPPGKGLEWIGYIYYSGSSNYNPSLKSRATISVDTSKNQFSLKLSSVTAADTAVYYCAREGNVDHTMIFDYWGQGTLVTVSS VL: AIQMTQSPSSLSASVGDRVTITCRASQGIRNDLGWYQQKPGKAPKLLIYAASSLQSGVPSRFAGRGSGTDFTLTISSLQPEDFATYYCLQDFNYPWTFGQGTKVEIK ?
Response: 253000 M⁻¹ s⁻¹

Request: kon for H4H12167P (antibody, human IgG4, V domains shown, Human IgG4 Fc with S108P hinge mutation (H4H)) VH: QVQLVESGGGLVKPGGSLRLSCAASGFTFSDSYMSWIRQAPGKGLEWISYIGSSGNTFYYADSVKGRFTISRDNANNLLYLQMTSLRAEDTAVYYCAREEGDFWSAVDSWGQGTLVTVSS VL: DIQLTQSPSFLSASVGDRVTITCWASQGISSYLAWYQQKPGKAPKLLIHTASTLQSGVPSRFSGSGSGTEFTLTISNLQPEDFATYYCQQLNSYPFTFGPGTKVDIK ?
Response: 537000 M⁻¹ s⁻¹

Request: kon for H4H11686N (antibody, V domains shown, also called H2M11686N) VH: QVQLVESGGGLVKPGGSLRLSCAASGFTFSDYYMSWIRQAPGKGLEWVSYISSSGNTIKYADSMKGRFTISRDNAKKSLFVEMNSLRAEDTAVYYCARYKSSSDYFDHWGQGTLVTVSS VL: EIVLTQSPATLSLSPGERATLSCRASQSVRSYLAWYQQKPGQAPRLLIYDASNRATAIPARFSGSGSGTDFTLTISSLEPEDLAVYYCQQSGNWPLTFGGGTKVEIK ?
Response: 233000 M⁻¹ s⁻¹
